Origin of values: patent US9776991B2

Documented pIC50 across a set of compounds
- experimental.target: recombinant sEH (soluble epoxide hydrolase, EPHX2) (Homo sapiens (Human))
- Sequence (P34913 whole entry): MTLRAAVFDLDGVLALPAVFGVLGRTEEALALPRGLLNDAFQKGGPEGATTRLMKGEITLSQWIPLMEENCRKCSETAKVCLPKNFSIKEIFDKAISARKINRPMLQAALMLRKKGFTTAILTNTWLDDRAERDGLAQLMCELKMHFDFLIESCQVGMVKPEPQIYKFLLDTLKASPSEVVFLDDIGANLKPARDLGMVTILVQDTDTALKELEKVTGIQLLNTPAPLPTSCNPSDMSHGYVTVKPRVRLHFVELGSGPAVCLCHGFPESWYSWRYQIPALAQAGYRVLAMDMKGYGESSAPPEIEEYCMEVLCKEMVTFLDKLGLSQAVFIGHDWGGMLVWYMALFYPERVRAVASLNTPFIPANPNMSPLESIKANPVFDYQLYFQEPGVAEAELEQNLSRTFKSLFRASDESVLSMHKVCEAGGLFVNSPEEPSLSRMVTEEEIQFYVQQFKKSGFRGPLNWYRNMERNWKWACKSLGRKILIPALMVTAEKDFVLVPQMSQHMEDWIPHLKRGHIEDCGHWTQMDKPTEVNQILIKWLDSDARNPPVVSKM
- test: biochemical fluorometric sEH inhibition assay with Phome substrate
- condition.info: recombinant sEH purified from Sf9 insect cells, 2 nM sEH, 5 μM Phome, 60 minutes at 30° C.
Structures can show the parent of a compound that is named as a salt.
Quick note: pIC50 values are minus log10 of concentrations in mol/L.

compound	parameter.measured	value.reported
O=C(NCc1ccc(Cl)cc1Cl)c1cnc(CN2CCN(C(=O)c3nc(F)ccc3F)CC2)s1	pIC50	8.07
COCC1(C(=O)N2CCN(Cc3ccc(C(=O)NCc4ccccc4OC(F)(F)F)s3)CC2)CC1	pIC50	8.92
O=C(NCc1ccccc1OC(F)(F)F)c1ccc(CN2CCN(C3CCCC3)C(=O)C2)s1	pIC50	9.10
O=C(NCc1ccccc1OC(F)(F)F)c1ccc(CN2CCN(C(=O)c3nc(F)ccc3F)CC2)s1	pIC50	8.76
COc1ccc(CNC(=O)c2ccc(CN3CCN(C(=O)C(C)O)CC3)s2)c(OC(F)(F)F)c1 (centres unmarked)	pIC50	9.12
CC(C)[C@@H](O)C(=O)N1CCN(Cc2ncc(C(=O)NCc3ccc(Cl)cc3Cl)s2)CC1	pIC50	7.88

-- ask Name the recorded pIC50 of the compound listed here: NC1(C(=O)N2CCN(Cc3ccc(C(=O)NCc4ccccc4OC(F)(F)F)s3)CC2)CC1 [Example 115, trifluoroacetate]
-- reply 8.79

-- ask Name the recorded pIC50 of the compound listed here: O=C(NCc1ccccc1C(F)(F)F)c1ccc(CN2CCN(C(=O)c3ccc(F)cc3Cl)CC2)s1
-- reply 8.90
